Where these numbers come from: patent US20260159512A1

Target: hBCAT1 (Homo sapiens)
Sequence (P54687 whole entry): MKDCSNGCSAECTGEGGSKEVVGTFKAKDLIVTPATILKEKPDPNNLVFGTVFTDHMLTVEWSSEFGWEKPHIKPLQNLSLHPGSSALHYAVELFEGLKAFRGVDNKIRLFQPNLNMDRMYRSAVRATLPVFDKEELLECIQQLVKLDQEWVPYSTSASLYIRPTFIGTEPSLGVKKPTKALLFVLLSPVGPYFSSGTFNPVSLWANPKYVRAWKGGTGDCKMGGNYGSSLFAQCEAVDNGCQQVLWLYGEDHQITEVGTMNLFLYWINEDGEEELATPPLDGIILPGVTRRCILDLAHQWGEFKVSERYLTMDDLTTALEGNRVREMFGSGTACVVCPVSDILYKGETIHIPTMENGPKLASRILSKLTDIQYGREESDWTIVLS
pIC50: −log10 of the molar value.
pIC50 by entry:
reportedEndpoint: pIC50

| compound | observedResult |
| --- | --- |
| O=C(N[C@H]1CCC[C@@H](n2c(-c3ccccc3F)nc3cnc(N4CCCC4CO)cc32)C1)c1ncc(Cl)s1 (stereo partly shown) | > 6.30 |
| O=C(NC1COCC(n2c(-c3ccccc3F)nc3cnc(-n4nccn4)cc32)C1)c1ncc(C(F)F)s1 (single isomer, unassigned) [Example 143] | < 5.30 |
| CC(C)Cc1nc2cnc(-c3nc[nH]n3)cc2n1[C@@H]1CCC[C@H](NC(=O)c2ncc(C#N)s2)C1 | > 6.30 |
| O=C(N[C@H]1CCC[C@@H](n2c(-c3ncccc3F)nc3cnc(-c4nc[nH]n4)cc32)C1)c1ncc(C(F)F)s1 | > 6.30 |
| O=C(NC1CC(O)CC(n2c(-c3ccccc3F)nc3cnc(-n4nccn4)cc32)C1)c1ncc(Cl)s1 (stereo not shown) | > 6.30 |
| C#Cc1ccc(C(=O)NC2CC(n3c(-c4ccccc4F)nc4cc(C(=O)NC)c(OC)cc43)CN(C)C2)s1 (stereo not shown) | 5.30 to 6.00 |
| CO[C@H]1C[C@@H](NC(=O)c2ncc(Cl)s2)C[C@@H](n2c(CC(C)C)nc3cnc(-c4nc[nH]n4)cc32)C1 (stereo in doubt) | > 6.30 |
